# Test system: Saccharomyces cerevisiae BY4741 SeMeCo community
# Assay: z-score of subpopulation abundance vs DMSO median, subpopulation auxotrophic for UM; higher = larger share of this subpopulation than in DMSO controls
# Test settings: 10 µM; 24 h; SM minimal medium; subpopulation (auxotrophy): UM
Where a name gives a salt, the structure may show the parent alone.
Recorded metric: z-score of subpopulation abundance
Reply briefly: the number, and no unit.

See these solved cases before continuing.
### Prompt Requested read-out: z-score of subpopulation abundance. Entry: COC(=O)C1=C(C)NC(C)=C(C(=O)OCCN2CCN(C(c3ccccc3)c3ccccc3)CC2)C1c1cccc([N+](=O)[O-])c1 (centres undefined) [Manidipine 2HCl]
### Response -0.8

### Prompt Requested read-out: z-score of subpopulation abundance. Entry: CCCCc1oc2ccccc2c1C(=O)c1cc(I)c(OCCN(CC)CC)c(I)c1 [Amiodarone HCl]
### Response 9.26

### Prompt Requested read-out: z-score of subpopulation abundance. Entry: COc1ccnc(C[S+]([O-])c2nc3cc(OC(F)F)ccc3[nH]2)c1OC (centres undefined) [Pantoprazole]
### Response -0.26

***
### Prompt Requested read-out: z-score of subpopulation abundance. Entry: COCCOC(=O)C1=C(C)NC(C)=C(C(=O)OC/C=C/c2ccccc2)C1c1cccc([N+](=O)[O-])c1 (centres undefined)
### Response -0.33
